# Study System: UniProt:P42227
# Sequence (P42227 whole entry): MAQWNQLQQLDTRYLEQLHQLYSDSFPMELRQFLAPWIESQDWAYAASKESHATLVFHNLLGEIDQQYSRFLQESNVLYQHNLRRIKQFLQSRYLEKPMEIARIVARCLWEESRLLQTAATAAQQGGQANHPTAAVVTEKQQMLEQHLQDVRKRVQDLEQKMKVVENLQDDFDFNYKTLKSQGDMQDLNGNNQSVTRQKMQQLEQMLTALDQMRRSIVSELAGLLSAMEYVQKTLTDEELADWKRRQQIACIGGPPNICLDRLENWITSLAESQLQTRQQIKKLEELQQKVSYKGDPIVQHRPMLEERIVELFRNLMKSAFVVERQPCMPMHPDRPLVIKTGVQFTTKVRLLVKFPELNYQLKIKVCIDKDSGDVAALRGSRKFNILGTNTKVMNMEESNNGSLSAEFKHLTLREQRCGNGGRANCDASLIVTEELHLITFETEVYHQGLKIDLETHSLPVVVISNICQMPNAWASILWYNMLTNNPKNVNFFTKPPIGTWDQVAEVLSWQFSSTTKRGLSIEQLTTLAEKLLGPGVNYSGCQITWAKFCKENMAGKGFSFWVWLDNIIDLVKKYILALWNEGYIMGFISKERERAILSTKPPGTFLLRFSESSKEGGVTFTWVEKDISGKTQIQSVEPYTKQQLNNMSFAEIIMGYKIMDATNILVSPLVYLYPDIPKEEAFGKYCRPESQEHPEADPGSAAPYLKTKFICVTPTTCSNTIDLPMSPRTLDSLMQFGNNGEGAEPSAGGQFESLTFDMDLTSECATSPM
# Protocol Description: Fluorescence Polarization Assay
# Settings: pH 7.5; 22 °C
Numbered stars: 1 amine (or outer) side, 2 acyl side, 3 side chain; on linkers, the order of the positions; unused ones are H or OH. Square brackets hold non-standard residues; d marks the D form. Peptide text beside a SMILES is read from it. * marks the point of attachment. ξ: configuration not given here. pY = N[C@@H](Cc1ccc(OP(=O)(O)O)cc1)C(=O)O; Hyp = O=C(O)[C@@H]1C[C@@H](O)CN1; X3 = O=C(CN1CCN([*:1])CC1)[*:2]; Cha = N[C@@H](CC1CCCCC1)C(=O)O; Ile(3ξ) = CCC(C)[C@H](N)C(=O)O; Thr(3ξ) = CC(O)[C@H](N)C(=O)O; Cbz = O=C(OCc1ccccc1)*; Inp = O=C(O)C1CCNCC1
For each record, write down the corresponding log10 of IC50.
A difference of one corresponds to tenfold IC50; all values are log10 with IC50 in nM.

What value of measured log10 of IC50 is listed for CC(=O)N[C@@H](Cc1ccc(OP(=O)(O)O)cc1)C(=O)N[C@@H](CC(C)C)C(=O)N1CCN(CC(=O)N[C@@H](CCC(N)=O)C(=O)N[C@H](C(N)=O)C(C)O)CC1 (some centres undefined) (Ac-[pY]L[X3]Q[Thr(3ξ)]-NH2) ?
4.76

Next up: CC(=O)N[C@@H](Cc1ccc(OP(=O)(O)O)cc1)C(=O)N[C@@H](CC(C)C)C(=O)N1C[C@H](O)C[C@H]1C(=O)N[C@@H](CCC(N)=O)C(=O)N[C@H](C(N)=O)C(C)O (some centres undefined) (Ac-[pY]L[Hyp]Q[Thr(3ξ)]-NH2)
2.68

Try CC(C)C[C@H](NC(=O)[C@H](Cc1ccc(OP(=O)(O)O)cc1)NC(=O)OCc1ccccc1)C(=O)N1CCC[C@H]1C(=O)N[C@@H](CCC(N)=O)C(=O)N[C@H](C(N)=O)C(C)O (some centres undefined) (Cbz-[pY]LPQ[Thr(3ξ)]-NH2) next.
2.88

Also CC(=O)N[C@@H](Cc1ccc(OP(=O)(O)O)cc1)C(=O)N[C@@H](CC(C)C)C(=O)N1CCC(C(=O)N[C@@H](CCC(N)=O)C(=O)N[C@H](C(N)=O)C(C)O)CC1 (some centres undefined) (Ac-[pY]L[Inp]Q[Thr(3ξ)]-NH2) , if possible.
4.54

Moving on to the next compound: CC(=O)N[C@@H](Cc1ccc(OP(=O)(O)O)cc1)C(=O)N[C@@H](CC(C)C)C(=O)N1CCC[C@H]1C(=O)N[C@@H](CCC(N)=O)C(=O)N[C@H](C(N)=O)C(C)O (some centres undefined)
2.87

CCC(C)[C@H](NC(=O)[C@H](Cc1ccc(OP(=O)(O)O)cc1)NC(C)=O)C(=O)N1CCC[C@H]1C(=O)N[C@@H](CCC(N)=O)C(=O)N[C@H](C(N)=O)C(C)O (some centres undefined) (Ac-[pY][Ile(3ξ)]PQ[Thr(3ξ)]-NH2) ?
3.03

Try this compound next: CNC(=O)CC[C@H](NC(=O)[C@@H]1CCCN1C(=O)[C@H](CC(C)C)NC(=O)[C@H](Cc1ccc(OP(=O)(O)O)cc1)NC(C)=O)C(=O)N[C@H](C(N)=O)C(C)O (some centres undefined) (Ac-[pY]LPE(NHMe)[Thr(3ξ)]-NH2)
4.26

And CC(=O)N[C@@H](Cc1ccc(OP(=O)(O)O)cc1)C(=O)N[C@@H](CC1CCCCC1)C(=O)N1CCC[C@H]1C(=O)N[C@@H](CCC(N)=O)C(=O)N[C@H](C(N)=O)C(C)O (some centres undefined) (Ac-[pY][Cha]PQ[Thr(3ξ)]-NH2) ?
2.96
